%Inh overview
Tested on: AURKA
Details: concentration: 1 μM, replicates: in singlicate; n = 1;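 note: KINOMEscan kinase panel screen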
Output should be the measured figure followed by the unit it is expressed in.

Lookup: # input compound: Cc1cccc(-c2nc(C)cc(Nc3ccncc3)n2)n1 [GSK257997] ; wanted: its %Inh
Found: 21%

Lookup: # input compound: C[C@@H]1CCCCN1c1cc(-c2ccc3c(N)n[nH]c3c2)nc(N)n1 [GSK2258759] ; wanted: its %Inh
Found: 82%

Lookup: # input compound: Cc1cccc(-c2nc(Nc3ccc4[nH]ncc4c3)c3ccccc3n2)n1 [GW857175] ; wanted: its %Inh
Found: 0%

Lookup: # input compound: Cc1ccccc1-n1cnc2c(N)ncnc21 [SKF-97510] ; wanted: its %Inh
Found: 0%

Lookup: # input compound: CN(C)CCN(C)C(=O)c1cc(-c2ccncc2)c(-c2ccc(Cl)c(O)c2)o1.Cl.Cl [SB-710397] ; wanted: its %Inh
Found: 0%

Next:
Lookup: # input compound: `NC(=O)c1nnc2ccccc2c1N` ; wanted: its %Inh
Found: 0%

Lookup: # input compound: Cc1ccc(-c2cc(-c3c[nH]nc3-c3ccccn3)ccn2)cc1 [GW684088] ; wanted: its %Inh
Found: 2%

Lookup: # input compound: Cl.O=C(Nc1cccc(-c2nn3ncccc3c2-c2ccnc(Nc3cccnc3)n2)c1)c1c(F)cccc1F [GSK312879] ; wanted: its %Inh
Found: 0%

----------
System: PKMYT1
Conditions: concentration: 1 μM, replicates: in singlicate; n = 1
%Inh overview
API: value field is a number in %; no unit string.

Please review the entries below; each comes with its answer.
Lookup: Lab note: need %Inh with PKMYT1 for entry `Cc1ccc(NC(=O)Nc2cccc(Cl)c2)cc1-c1ccc(C(=O)Nc2ccncc2)cc1` , please look it up.
Found: 0

Lookup: Lab note: need %Inh with PKMYT1 for entry `O=C1NC(=O)C(N2CCc3ccccc32)=C1c1ccccc1Cl` , please look it up.
Found: 11

Lookup: Lab note: need %Inh with PKMYT1 for entry `Cc1ccc(NC(=O)Nc2cc(C(C)(C)C)nn2-c2ccccc2)cc1` , please look it up.
Found: 14

Lookup: Lab note: need %Inh with PKMYT1 for entry `COc1ccccc1-c1ccc2c(NC(=O)C3CC3)n[nH]c2n1` , please look it up.
Found: 0

Next:
Lookup: Lab note: need %Inh with PKMYT1 for entry `CS(=O)(=O)c1ccc(-c2c(-c3ncn[nH]3)sc(N3CCOCC3)c2C#N)cc1` , please look it up.
Found: 0

Lookup: Lab note: need %Inh with PKMYT1 for entry `Cc1ccc(-c2cc(-c3c[nH]nc3-c3ccccn3)ccn2)cc1` , please look it up.
Found: 0

Lookup: Lab note: need %Inh with PKMYT1 for entry COc1cc2ncn(-c3cc(OCC4CCCO4)c(C(N)=O)s3)c2cc1OC (stereo not drawn) , please look it up.
Found: 0

Lookup: Lab note: need %Inh with PKMYT1 for entry `Cc1cccc(-c2nc(Nc3ccncc3)c3ccccc3n2)n1` , please look it up.
Found: 0

Lookup: Lab note: need %Inh with PKMYT1 for entry `COc1ccc(C2=C(Nc3cccc(C(=O)O)c3)C(=O)NC2=O)cc1` , please look it up.
Found: 0

----------
Test system: JAK2(JH1domain-catalytic)
Details: concentration: 1 μM, replicates: in singlicate; n = 1
Quick rule for you: %Inh under 10% gets 1, anything else gets -1.

The following molecules have reported results that may help.
Lookup: Please check: %Inh for Cc1cc(NCC(c2ccccc2)c2ccccc2)nc(NCc2ccc(C(F)(F)F)cc2)n1 [GW497681] , strictly under 10% or not?
Found: 1

Lookup: Please check: %Inh for COc1ccc(Nc2nccc(NCCNC(=O)Nc3ccccc3F)n2)cc1 [GSK1379901] , strictly under 10% or not?
Found: -1

Lookup: Please check: %Inh for `CC(C)(C)c1ccc(C(=O)Nc2cn3cc(Cl)ccc3n2)cc1` , strictly under 10% or not?
Found: 1

Lookup: Please check: %Inh for `O=C(O)COc1ncnc2cc(-c3ccc4[nH]ncc4c3)sc12` , strictly under 10% or not?
Found: -1

Next:
Lookup: Please check: %Inh for Cn1cncc1-c1ccc2ncnc(Nc3ccc(OCc4ccccc4)cc3)c2c1 [GW320571] , strictly under 10% or not?
Found: 1

Lookup: Please check: %Inh for COc1cc2nccc(Nc3ccc(NC(=O)c4ccc(C)cc4)c(O)c3)c2cc1OC.Cl [GW440132] , strictly under 10% or not?
Found: 1

Lookup: Please check: %Inh for C[C@@H]1CCCCN1c1cc(-c2ccc3c(N)n[nH]c3c2)nc(N)n1 [GSK2258759] , strictly under 10% or not?
Found: 1

Lookup: Please check: %Inh for Cc1ccc(NC(=O)Nc2cc(C(C)(C)C)nn2-c2ccccc2)cc1 [GSK1014915] , strictly under 10% or not?
Found: -1

Lookup: Please check: %Inh for CCCc1ccc(S(=O)(=O)NC2CCN(c3ccnc(Nc4ccc(F)cc4)n3)C2)cc1 (stereo not shown) [GSK1379715] , strictly under 10% or not?
Found: -1

Lookup: Please check: %Inh for `Cn1ccc2ncnc(Oc3ccc(NC(=O)Nc4ccccc4)cc3)c21` , strictly under 10% or not?
Found: 1

Lookup: Please check: %Inh for Nc1ncnc2[nH]c(-c3ccccc3)nc12 [AH5015] , strictly under 10% or not?
Found: -1

Lookup: Please check: %Inh for CS(=O)(=O)c1ccc(-c2nc3n(c2-c2ccncc2)CCC3)cc1 [SKF-105942] , strictly under 10% or not?
Found: 1

----------
System: TESK1
Settings: concentration: 1 μM, replicates: in singlicate; n = 1
Classification field. Basis: %Inh. Definitions: bin 0 = under 2%, bin 1 = from 2% up to 20%, bin 2 = 20% and over

The following compounds have reported results that may help.
Lookup: Using the reported %Inh, which band applies to `CC(C)(C)c1ccc(C(=O)Nc2cn3cc(-c4cccnc4)ccc3n2)cc1` ?
Found: bin 1

Lookup: Using the reported %Inh, which band applies to `Cl.c1ccc(-c2n[nH]cc2-c2ccnc(-c3ccc(CN4CCOCC4)cc3)c2)nc1` ?
Found: bin 1

Lookup: Using the reported %Inh, which band applies to `COc1ccc(Nc2nccc(NCCNC(=O)Nc3ccccc3F)n2)cc1` ?
Found: bin 2

Lookup: Using the reported %Inh, which band applies to COc1cc2ncn(-c3cc(OCC4CCCO4)c(C(N)=O)s3)c2cc1OC (centres unmarked) ?
Found: bin 0

Lookup: Using the reported %Inh, which band applies to `O=C(Nc1n[nH]c2nc(-c3nccs3)c(Br)cc12)C1CCCC1` ?
Found: bin 2

Next:
Lookup: Using the reported %Inh, which band applies to `CS(=O)(=O)c1ccc(-c2nc3n(c2-c2ccncc2)CCC3)cc1` ?
Found: bin 0

Lookup: Using the reported %Inh, which band applies to `Cc1cccc(-c2nc(Nc3ccncc3)c3ccccc3n2)n1` ?
Found: bin 1

Lookup: Using the reported %Inh, which band applies to `CN(C)CCN(C)C(=O)c1cc(-c2ccncc2)c(-c2ccc(Cl)c(O)c2)o1.Cl.Cl` ?
Found: bin 2

Lookup: Using the reported %Inh, which band applies to `Nc1ncnc2[nH]c(-c3ccccc3)nc12` ?
Found: bin 2

Lookup: Using the reported %Inh, which band applies to `Cl.Oc1ccc(-c2nc(-c3ccccc3)[nH]c2-c2ccncc2)cc1` ?
Found: bin 2

----------
System: EPHB2
Conditions: concentration: 1 μM, replicates: in singlicate; n = 1
observed-property: %Inh (%)
API: value field is a number in %; no unit string.

Please review the entries below; each comes with its answer.
Lookup: Lab note: need %Inh with EPHB2 for entry `Clc1cc(Cl)cc(Nc2ccnc(Nc3cc(Cl)cc(Cl)c3)n2)c1` , please look it up.
Found: 19

Lookup: Lab note: need %Inh with EPHB2 for entry `Cc1cccc(-c2cc(Nc3ccncc3)c3ccccc3n2)n1` , please look it up.
Found: 0

Lookup: Lab note: need %Inh with EPHB2 for entry `COc1cc2ncnc(Nc3ccc4nc(-c5ccccc5)[nH]c4c3)c2cc1OC.Cl` , please look it up.
Found: 1

Lookup: Lab note: need %Inh with EPHB2 for entry `COc1cccc(-c2cc(-c3c[nH]nc3-c3ccccn3)ccn2)c1` , please look it up.
Found: 16

Lookup: Lab note: need %Inh with EPHB2 for entry `COc1cc2nccc(Nc3ccc(NC(=O)c4ccc(C)cc4)c(O)c3)c2cc1OC.Cl` , please look it up.
Found: 0

Next:
Lookup: Lab note: need %Inh with EPHB2 for entry `CCn1c(-c2ccccn2)nc2cnccc21` , please look it up.
Found: 0

Lookup: Lab note: need %Inh with EPHB2 for entry `O=C(O)COc1ncnc2cc(-c3ccc4[nH]ncc4c3)sc12` , please look it up.
Found: 0

Lookup: Lab note: need %Inh with EPHB2 for entry `CN1C(=O)C(Nc2ccc(Cl)c(C(=O)O)c2)=C(c2ccc(Cl)cc2)C1=O` , please look it up.
Found: 0

Lookup: Lab note: need %Inh with EPHB2 for entry `Nc1ncnc2[nH]c(-c3ccccc3)nc12` , please look it up.
Found: 8

Lookup: Lab note: need %Inh with EPHB2 for entry `CC(C)(C)c1ccc(C(=O)Nc2cn3cc(Cl)ccc3n2)cc1` , please look it up.
Found: 0
